- Test system: wheat (Wh)
- Assay: Test Example 3: phytotoxicity to upland crop plants, treatment before emergence
- Type: in vivo
- Measurement Parameters: dosage 5 kg/ha
Consider the following compounds and their measured Phytotoxicity Wh readings.

[
  {
    "Structure As Smiles": "CCCNC(=O)c1nc2c(cc1C(=O)Nc1c(CC)ccc(Cl)c1CC)CCOC2",
    "Experimental Result": "5 (Crop-killing rate is 100%.)"
  },
  {
    "Structure As Smiles": "CCCNC(=O)c1nc2nn(C)cc2cc1C(=O)Nc1c(CC)ccc(Cl)c1CC",
    "Experimental Result": "5 (Crop-killing rate is 100%.)"
  },
  {
    "Structure As Smiles": "CCCNC(=O)c1nc2c(ccn2C)cc1C(=O)Nc1c(CC)ccc(Cl)c1CC",
    "Experimental Result": "5 (Crop-killing rate is 100%.)"
  },
  {
    "Structure As Smiles": "CCCNC(=O)c1nc2nc(C)n(C)c2cc1C(=O)Nc1c(CC)ccc(Cl)c1CC",
    "Experimental Result": "5 (Crop-killing rate is 100%.)"
  },
  {
    "Structure As Smiles": "CCCNC(=O)c1nc2c(cc1C(=O)Nc1c(CC)ccc(Cl)c1CC)ncn2C",
    "Experimental Result": "5 (Crop-killing rate is 100%.)"
  },
  {
    "Structure As Smiles": "CCCNC(=O)c1nc2ccoc2cc1C(=O)Nc1c(CC)ccc(Cl)c1CC",
    "Experimental Result": "5 (Crop-killing rate is 100%.)"
  }
]

Write down measured Phytotoxicity Wh (wheat (Wh)) for this compound. CCc1ccc(Cl)c(CC)c1NC(=O)c1cc2c(nc1C(=O)NC1CCCC1)SCCC2 5 (Crop-killing rate is 100%.)

Write down measured Phytotoxicity Wh (wheat (Wh)) for this compound. CCCNC(=O)c1nc2c(cc1C(=O)Nc1c(CC)ccc(Cl)c1CC)c(C)nn2C 5 (Crop-killing rate is 100%.)

Write down measured Phytotoxicity Wh (wheat (Wh)) for this compound. CCNC(=O)c1nc2ncccc2cc1C(=O)Nc1c(CC)ccc(Cl)c1CC 4 (Crop-killing rate is 90-99%.)

Write down measured Phytotoxicity Wh (wheat (Wh)) for this compound. CCNC(=O)c1nc2ccsc2cc1C(=O)Nc1c(CC)ccc(Cl)c1CC 4 (Crop-killing rate is 90-99%.)

Write down measured Phytotoxicity Wh (wheat (Wh)) for this compound. CCCNC(=O)c1nc2c(cc1C(=O)Nc1c(CC)ccc(Cl)c1CC)COCC2 5 (Crop-killing rate is 100%.)

Write down measured Phytotoxicity Wh (wheat (Wh)) for this compound. Cc1c(Cl)cccc1NC(=O)c1nc2ccccc2nc1C(=O)NC1CCCC1 5 (Crop-killing rate is 100%.)

Write down measured Phytotoxicity Wh (wheat (Wh)) for this compound. CCNC(=O)c1nc2ccc(OC)cc2cc1C(=O)Nc1c(CC)ccc(Cl)c1CC 2 (Crop-killing rate is 40-69%.)
